abundance fitness values for the variants below.
B1: Histone H1t, residues 44 to 112; numbered along this chain, P22492 (parent)
chain: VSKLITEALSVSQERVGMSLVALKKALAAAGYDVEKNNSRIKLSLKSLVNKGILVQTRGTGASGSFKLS

variants of: B1; assay: abundance fitness (aPCA) (normalised: wild type 0, dead -1); higher = more abundant; growth selection in yeast, the domain comes from the species named; conditions: Homo sapiens
parameter: abundance fitness

> print(dat)
    variant.id          parameter  value.observed
 1        N37R  abundance fitness           0.077
 2        K51W  abundance fitness          -0.557
 3        D33P  abundance fitness          -0.214
 4        L43P  abundance fitness          -0.483
 5        L23S  abundance fitness              -1
 6        A62P  abundance fitness          -0.013
 7        N37F  abundance fitness          -0.178
 8        V34Y  abundance fitness          -0.472
 9        D33S  abundance fitness          -0.021
10        A26H  abundance fitness          -0.167
11        S39P  abundance fitness          -0.445
12        E35K  abundance fitness            0.05
13        G52C  abundance fitness           -0.01
14        L23W  abundance fitness          -0.541
15        F66L  abundance fitness          -0.097
16        A30F  abundance fitness          -0.368
17        I53R  abundance fitness          -0.099
18        K36W  abundance fitness          -0.626
19        L23G  abundance fitness           -1.27
20        Y32K  abundance fitness           0.064
21        L23R  abundance fitness          -0.942
22        G59L  abundance fitness          -0.049
23        S47H  abundance fitness           -0.13
24        S47T  abundance fitness            0.01
25        L23N  abundance fitness           -0.95
26        T57L  abundance fitness          -0.026
27        G31T  abundance fitness          -0.259
28        A22N  abundance fitness          -0.262
29        G52H  abundance fitness          -0.283
30        A22G  abundance fitness           -0.45
31        G59M  abundance fitness          -0.152
32        S47L  abundance fitness          -0.228
33        K36I  abundance fitness          -0.628
34        T60R  abundance fitness          -0.126
35        V34M  abundance fitness          -0.098
36        L68A  abundance fitness          -0.176
37        K24D  abundance fitness           -1.33
38        S39Q  abundance fitness           0.075
39        R40A  abundance fitness           0.091
40        V34R  abundance fitness          -0.268
41        L27N  abundance fitness          -0.906
42        F66V  abundance fitness          -0.078
43        A29F  abundance fitness          -0.276
44        S69Q  abundance fitness          -0.102
45        T57A  abundance fitness           0.024
46        L43S  abundance fitness           0.034
